assay target: T1, HOIP UBA domain (human, UniProt Q96EP0 480-636)
T1 sequence: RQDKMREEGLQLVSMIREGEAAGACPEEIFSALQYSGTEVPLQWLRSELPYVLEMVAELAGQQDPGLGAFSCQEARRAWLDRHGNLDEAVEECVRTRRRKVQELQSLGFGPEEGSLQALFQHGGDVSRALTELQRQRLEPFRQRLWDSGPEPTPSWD
test method notes: ITC
measured metric: Kd (µM)
Numbers only, in µM.

Task: Request the reported Kd associated with HOIL-1L UBL domain (domain or fragment) QDIRLWVSVEDAQMHTVTIWLTVRPDMTVASLKDMVFLDYGFPPVLQQWVIGQRLARDQETLHSHGVRQNGDSAYLYLLSARN
Output: 3.9
